System: HeLa Kyoto;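 further: HeLa Kyoto cells arrested at G1/S by double thymidine block, proteins quantified by TMT10plex mass spectrometry in mild NP-40 versus SDS extracts, three biological replicates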
Assay: solubility in G1/S (NP-40 vs SDS abundance) (log2 ratio); higher = more soluble
Details: cell cycle stage: G1/S
Measured Attribute: solubility in G1/S (log2)
Please reply with the value in numeric form only.

MAASSISSPWGKHVFKAILMVLVALILLHSALAQSRRDFAPPGQQKREAPVDVLTQIGRSVRGTLDAWIGPETMHLVSESSSQVLWAISSAISVAFFALSGIAAQLLNALGLAGDYLAQGLKLSPGQVQTFLLWGAGALVVYWLLSLLLGLVLALLGRILWGLKLVIFLAGFVALMRSVPDPSTRALLLLALLILYALLSRLTGSRASGAQLEAKVRGLERQVEELRWRQRRAAKGARSVEEE [TMEM109] | -0.0444

Query: What measured solubility in G1/S (log2) goes with MAGPGPGPGDPDEQYDFLFKLVLVGDASVGKTCVVQRFKTGAFSERQGSTIGVDFTMKTLEIQGKRVKLQIWDTAGQERFRTITQSYYRSANGAILAYDITKRSSFLSVPHWIEDVRKYAGSNIVQLLIGNKSDLSELREVSLAEAQSLAEHYDILCAIETSAKDSSNVEEAFLRVATELIMRHGGPLFSEKSPDHIQLNSKDIGEGWGCGC [RAB43] ?
Result: -0.224

Query: What measured solubility in G1/S (log2) goes with MASADSRRVADGGGAGGTFQPYLDTLRQELQQTDPTLLSVVVAVLAVLLTLVFWKLIRSRRSSQRAVLLVGLCDSGKTLLFVRLLTGLYRDTQTSITDSCAVYRVNNNRGNSLTLIDLPGHESLRLQFLERFKSSARAIVFVVDSAAFQREVKDVAEFLYQVLIDSMGLKNTPSFLIACNKQDIAMAKSAKLIQQQLEKELNTLRVTRSAAPSTLDSSSTAPAQLGKKGKEFEFSQLPLKVEFLECSAKGGRGDVGSADIQDLEKWLAKIA [SRPRB] ?
Result: 0.446
